Tested on: SK-OV-3 ovarian
Experiment: NCI tumour cell line growth inhibition, 48 h
observed property: TGI

Req: Value lookup for TGI; key = "CCOC(=O)/C(=C/c1cc(OC)ccc1OC)CC(=O)O"
Resp: > 100 µM

Req: State the recorded TGI for this entry: "O=C(N/N=C\c1ccc([N+](=O)[O-])cc1)Nc1ccccc1"
Resp: > 100 µM

Req: Find the recorded TGI belonging to O=S1Cc2ccccc2CS1 (configuration not stated) and report it.
Resp: > 100 µM

Req: What value of TGI has been recorded for this entry: "NC(=O)c1cccc(N)c1"
Resp: > 100 µM

Req: State the recorded TGI for this entry: "CCS(=O)(=O)c1ccc(OC)c(Nc2ncc(-c3cccc(-c4ccccc4F)c3)o2)c1"
Resp: 14.3 µM

Others:
Req: What measured TGI goes with "CC(C)=CCC/C(C)=C/CC/C(C)=C/[C@@H]1[C@@H](CO)[C@]1(C)CC/C=C(\C)CCC=C(C)C" ?
Resp: > 100 µM

Req: Item CC(C)Cc1ccc(C(C)/C=C2\CCC(CN3CCOCC3)C2=O)cc1 (configuration not stated) has what recorded TGI?
Resp: 32.8 µM

Req: What measured TGI goes with "CC1=NN(c2cccc(Cl)c2)C(=N/c2nc3ccccc3s2)/C1=C\C=C\c1ccccc1" ?
Resp: > 100 µM

Req: I am curious: what TGI value has been reported for "NC(=O)Cc1ccccc1Oc1nccc(-c2c(-c3ccc(F)cc3)ncn2C2CCNCC2)n1" ?
Resp: > 25 µM

Req: Request the reported TGI associated with "C=CC[Se]C(=O)c1ccccc1OC(C)=O"
Resp: 2.54 µM

Req: Consider the compound shown here: "COc1cccc(N=N/C(=N/NC(=O)c2cc(Cl)ccc2O)c2ccc(N(CCC#N)CCC#N)cc2C)c1" What is its recorded TGI?
Resp: > 100 µM

Req: # query: TGI of entry "CC(C)[C@@H]1NC(=O)[C@]2(C)CSC(=N2)c2csc(n2)CNC(=O)C[C@@H](/C=C/CCS)OC1=O"
Resp: 0.228 µM

Req: What TGI value was documented for this compound, "CN(C)c1ccc(/C=C2\C[C@H]3[C@@H]4CCC5=CC(=O)CC[C@]5(C)[C@H]4CC[C@]3(C)C2=O)cc1" ?
Resp: > 100 µM

Req: What value of measured TGI is listed for "COc1ccc(Cc2cc(OC)c(OC)c(OC)c2)cc1O" ?
Resp: > 80.2 µM

Req: Which TGI is reported for this compound? "Nc1sccc1S(=O)(=O)c1ccsc1N"
Resp: > 100 µM

Req: Quick one: TGI for "CCCCCCCCCCCCCCCCCC(=O)[O][Sn]([CH2]CCC)([CH2]CCC)[CH2]CCC" ?
Resp: 0.288 µM

====

Tested on: SF-295 CNS
Experiment: NCI tumour cell line growth inhibition, 48 h
observed property: TGI

Check out these entries, answers already filled in.
Req: Form field: TGI recorded for "NC(N)=NS(=O)(=O)c1ccc(Nc2c3ccccc3nc3ccc(C(=O)Nc4ccc(S(N)(=O)=O)cc4)cc23)cc1" with SF-295 CNS (enter value)
Resp: > 100 µM

Req: Recorded TGI for Cc1ccc(NC(=O)C2C(=O)C(=O)N(c3ccc(C)cc3)C2=O)cc1 (stereo not given) with SF-295 CNS, please?
Resp: > 100 µM

Req: Item: "COc1cccc(/C=N/[N-]C(N)=O)c1[O-].[Cu+2].[OH3+].c1cnc2c(c1)ccc1cccnc12" Test system: SF-295 CNS Read-out: TGI Value: ?
Resp: 51.2 µM

Req: Param readout = TGI; param system = SF-295 CNS; param query = "Oc1c(Cl)cc(C(c2cc(Cl)c(O)c(Cl)c2)C(c2cc(Cl)c(O)c(Cl)c2)c2cc(Cl)c(O)c(Cl)c2)cc1Cl" ; response: value
Resp: 16.3 µM

Req: # returns recorded TGI (system: SF-295 CNS) for COC(=O)C1C(=O)O[C@@H](c2ccc(OC)cc2)C1C(=O)OC (stereo not given in full)
Resp: > 100 µM

Req: Return TGI measured with SF-295 CNS given this compound: "C/C(=C/CNc1ncnc2c1ncn2CCC(=O)O)CO"
Resp: > 100 µM

Req: SF-295 CNS / TGI / OCC1C(O)C(O)[C@@H]2SCCN12 (stereo not given in full) : value?
Resp: > 100 µM

Req: API: value(readout= TGI, system= SF-295 CNS, query= "COC(=O)C(=C\Sc1ccccc1)/C=C/C(=O)OC(C)(C)C" )
Resp: 34.3 µM

***
Req: Query TGI on SF-295 CNS for Nc1ccccc1S(=O)c1ccccc1 (stereo not given)
Resp: > 100 µM

Req: Query TGI on SF-295 CNS for "Fc1cc(C2=C[C@H](c3ccc4c(c3)OCO4)NC(=S)N2)c(Cl)cc1Cl"
Resp: > 100 µM
